From: patent US20170087174A1

# experiment.notes: PK of single agents vs fixed dose combinations (FDC), single oral dose in healthy volunteers
# Assay type: in vivo, human
# measurement.parameters: Arm 3 (FDC04) vs reference (Arm 1)
experimental.readout: Least Square Means Ratio, AUClast (%)
Numbers only; they are read as %.

1. COC(=O)N[C@H](C(=O)N1[C@H](c2nc3cc(-c4cc5ccc4CCc4ccc(c(-c6ccc7[nH]c([C@@H]8C[C@@H]9CCCC[C@@H]9N8C(=O)[C@@H](NC(=O)OC)C(C)C)nc7c6)c4)CC5)ccc3[nH]2)C[C@@H]2CCCC[C@@H]21)C(C)C [ODV, Odalasvir] ... 182.32

[in] Query: Least Square Means Ratio, AUClast; subject: C[C@H](NP(=O)(O)OC[C@@]1(F)O[C@@H](n2ccc(=O)[nH]c2=O)[C@](C)(O)[C@@H]1O)C(=O)O [Compound A-3]
[out] 115.78

[in] Next up: COc1ccc2c(O[C@@H]3C[C@H]4C(=O)N[C@]5(C(=O)NS(=O)(=O)C6CC6)C[C@H]5/C=C\CCCCN(C)C(=O)[C@@H]4C3)cc(-c3nc(C(C)C)cs3)nc2c1C [SMV, Simeprevir, reference compound]
[out] 133.85

[in] Another compound: C[C@]1(O)[C@H](n2ccc(=O)[nH]c2=O)O[C@](F)(CO)[C@H]1O [Compound A-1]
[out] 121.29

[in] Field entry: CC(C)OC(=O)[C@H](C)N[P@](=O)(OC[C@@]1(F)O[C@@H](n2ccc(=O)[nH]c2=O)[C@](C)(O)[C@@H]1O)Oc1ccccc1 [Compound (III)]
[out] 127.06

###

Parameter AUC(0-t): see the listing below.
# experiment.notes: PK of single agents vs fixed dose combinations (FDC), single oral dose in healthy volunteers
# Assay type: in vivo, human
# measurement.parameters: human, plasma, oral, Arm 4: FDC01; read-out: AUClast (mean ± SD)
Give the value, in units of ng·h/mL, as a plain number.

Example cases with answers are listed next.
1. COc1ccc2c(O[C@@H]3C[C@H]4C(=O)N[C@]5(C(=O)NS(=O)(=O)C6CC6)C[C@H]5/C=C\CCCCN(C)C(=O)[C@@H]4C3)cc(-c3nc(C(C)C)cs3)nc2c1C [SMV, Simeprevir, reference compound] ... 11600
2. C[C@]1(O)[C@H](n2ccc(=O)[nH]c2=O)O[C@](F)(CO)[C@H]1O ... 4690
3. C[C@H](NP(=O)(O)OC[C@@]1(F)O[C@@H](n2ccc(=O)[nH]c2=O)[C@](C)(O)[C@@H]1O)C(=O)O ... 909

# input for lookup
[in] Please report the recorded AUC(0-t) for "COC(=O)N[C@H](C(=O)N1[C@H](c2nc3cc(-c4cc5ccc4CCc4ccc(c(-c6ccc7[nH]c([C@@H]8C[C@@H]9CCCC[C@@H]9N8C(=O)[C@@H](NC(=O)OC)C(C)C)nc7c6)c4)CC5)ccc3[nH]2)C[C@@H]2CCCC[C@@H]21)C(C)C" .
[out] 11100

###

# experiment.notes: Phase-1 drug-drug interaction study in healthy volunteers (Compound (III) 800 mg, SMV 150 mg, Odalasvir 150 mg loading then 50 mg, once daily): plasma PK
# Type: in vivo, human
# measurement.parameters: both sexes, human, plasma, oral, Group 2, Day 20 (ODV + SMV); read-out: Cmax
experimental.readout: Cmax (ng/mL)
Express your answer in ng/mL, writing the number without its unit.

[in] Sample "COC(=O)N[C@H](C(=O)N1[C@H](c2nc3cc(-c4cc5ccc4CCc4ccc(c(-c6ccc7[nH]c([C@@H]8C[C@@H]9CCCC[C@@H]9N8C(=O)[C@@H](NC(=O)OC)C(C)C)nc7c6)c4)CC5)ccc3[nH]2)C[C@@H]2CCCC[C@@H]21)C(C)C" — what was its Cmax?
[out] 770
